Origin of values: PubChem BioAssay (NCI)

Consider the following molecules and their measured TGI readings.
Test system: HT29 colon
PROCEDURE DETAILS: NCI tumour cell line growth inhibition, 48 h

| MOLECULE | TGI |
| --- | --- |
| C[C@@H](O)[C@H](NC(=O)N[C@@H](CC(N)=O)c1nc([C@@H](N)CO)no1)C(=O)O | > 100 µM |
| CS(=O)(=O)CCNCc1ccc(-c2ccc3ncnc(Nc4ccc(OCc5ccccc5)c(Br)c4)c3c2)o1 | 10.1 µM |
| C/C(=N\n1c(Cc2ccccc2)n[nH]c1=O)c1ccccc1 | > 100 µM |
| C=C1C(=O)O[C@H]2[C@H]1CC/C(COC(=O)C(=O)c1cn(C)c3ccc(Cl)cc13)=C\CC[C@@]1(C)O[C@@H]21 | 1.19 µM |
| O=P1(Oc2ccc(Cl)cc2Cl)Oc2ccc3ccccc3c2-c2c(ccc3ccccc23)O1 | > 100 µM |
| CC12CCC(C(Nc3cc(C(F)(F)F)cc(C(F)(F)F)c3)C1=O)C2(C)C (stereo unspecified) | > 100 µM |
| CCN(CC)CCCNC(=O)C1COc2cc(-c3cc(=O)c4ccccc4o3)ccc2O1 (stereo unspecified) | > 100 µM |
| CCCC[C@H]1[C@@H](OCOc2ccccc2)COC(=O)N1[C@H](C)c1ccccc1 | > 59 µM |
| C=C1C(=O)OC2C1CCC(C)C1C=CC(=O)C12C (stereo unspecified) | 4.53 µM |
| Nc1c2ccccc2nc2ccc3c(=O)cc(-c4ccccc4)oc3c12 | 1.86 µM |
| O=C1c2ccccc2-c2oc(=O)c3ccccc3c21 | > 100 µM |
| COc1cc2ncn(-c3cc(O[C@@H](C)c4ccccc4Cl)c(C(N)=O)s3)c2cc1OC | > 25 µM |
| CSC1=Nc2ccccc2-c2nc3ccccc3cc2C1 | > 100 µM |
| Nc1ccc2c(=O)cc(-c3cccs3)[nH]c2n1 | > 72 µM |
| NC(=O)CCC(Nc1c2ccccc2nc2ccccc12)C(=O)O (stereo unspecified) | > 100 µM |
| O=C(CC(C(=O)c1cccs1)c1cccs1)c1ccsc1 (stereo unspecified) | > 100 µM |
| O=C(O)Cc1cc(=O)[nH]c2c1/C(=N/O)CCC2 | > 100 µM |
| c1ccc2c(NCCCCCCNc3c4ccccc4nc4ccccc34)c3ccccc3nc2c1 | 1.77 µM |
| CC(C)[O-].CC(C)[O-].O=C1C=C([O-])C(=O)c2ccccc21.O=C1C=C([O-])C(=O)c2ccccc21.[Ti+4] | > 100 µM |
| COc1ccc(NC([Se])=NC23CC4CC(CC(C4)C2)C3)cc1 | 15 µM |
| CCN(CC)c1ccc2cc(C(N)=S)c(=N)oc2c1 | > 100 µM |
